# System: LNCaP cells
# ASSAY_SUMMARY: MTT cytotoxicity assay, LNCaP (p53 pos)
# Type: cell-based
# TEST_CONTEXT: 48 h
IC50 values, listed per item

What measured IC50 goes with COc1ccc([C@H]2CN(C)[C@@]3(C(=O)Nc4ccccc43)[C@@]23NC(=S)N(c2ccc(F)c(Cl)c2)C3=O)cc1 (racemic) [Compound 41] ? > 100 µM

// next record CN1C[C@H](c2ccncc2)[C@]2(NC(=S)N(c3ccccc3)C2=O)[C@]12C(=O)Nc1ccc(Cl)cc12 (racemic) [Compound 21] > 100 µM

// next record CCOc1ccc(N2C(=O)[C@]3(NC2=S)[C@@H](c2ccc(Cl)cc2)CN(C)[C@@]32C(=O)Nc3ccccc32)cc1 (racemic) [Compound 28] > 100 µM

// next record CN1C[C@H](c2ccccc2Cl)[C@]2(NC(=S)N(c3ccccc3)C2=O)[C@]12C(=O)Nc1ccc(Cl)cc12 (racemic) [Compound 11] > 100 µM

// next record CN1C[C@H](C2CCCCC2)[C@]2(NC(=S)N(c3ccccc3)C2=O)[C@]12C(=O)Nc1ccc(Br)cc12 (racemic) [Compound 26] > 100 µM

// next record CN1CC(c2ccccc2Cl)C2(NC(=S)N(c3ccc(O)cc3)C2=O)C12C(=O)Nc1ccc(Br)cc12 (stereo not drawn) [Compound 54] 9.5 µM

// next record CN1C[C@H](c2ccc(Cl)cc2)[C@]2(NC(=S)N(c3ccccc3)C2=O)[C@]12C(=O)Nc1ccc(Cl)cc12 (racemic) [Compound 12] > 100 µM

// next record CCOc1ccc(N2C(=O)[C@]3(NC2=S)[C@@H](c2ccc(F)cc2)CN(C)[C@@]32C(=O)Nc3ccc(Br)cc32)cc1 (racemic) [Compound 31] > 100 µM

----------
# System: PC3 cells
# ASSAY_SUMMARY: MTT cytotoxicity assay, PC3 (p53 neg)
# Type: cell-based
# TEST_CONTEXT: 48 h
QUANTITY_NAME: IC50

Field: example entries. Status: answers known.
CN1C[C@H](c2cccc(Cl)c2)[C@]2(NC(=S)N(c3ccccc3)C2=O)[C@]12C(=O)Nc1ccccc12 (racemic) [Compound 14] ... > 100 µM
CN1C[C@H](c2ccc(Cl)cc2)[C@]2(NC(=S)N(c3ccc(O)cc3)C2=O)[C@]12C(=O)Nc1ccc(Cl)cc12 (racemic) [Compound 52] ... > 100 µM
CN1C[C@H](c2cccc(Cl)c2)[C@]2(NC(=S)N(c3ccc(F)c(Cl)c3)C2=O)[C@]12C(=O)Nc1ccc(Cl)cc12 (racemic) [Compound 43] ... 5.7 µM
CCOc1ccc(N2C(=O)[C@]3(NC2=S)[C@@H](c2ccc(Cl)cc2)CN(C)[C@@]32C(=O)Nc3ccccc32)cc1 (racemic) [Compound 28] ... > 100 µM
CN1C[C@H](c2ccccc2Cl)[C@]2(NC(=S)N(c3ccccc3)C2=O)[C@]12C(=O)Nc1ccc(Br)cc12 (racemic) [Compound 10] ... > 100 µM
CN1C[C@H](c2ccccc2Cl)[C@]2(NC(=S)N(c3ccc(O)cc3)C2=O)[C@]12C(=O)Nc1ccc(Cl)cc12 (racemic) [Compound 55] ... 15.1 µM

What measured IC50 goes with CCOc1ccc(N2C(=O)[C@]3(NC2=S)[C@@H](c2ccc(Cl)c(Cl)c2)CN(C)[C@@]32C(=O)Nc3ccccc32)cc1 (racemic) [Compound 27] ? > 100 µM

// next record COc1ccc([C@H]2CN(C)[C@@]3(C(=O)Nc4ccccc43)[C@@]23NC(=S)N(c2ccc(F)c(Cl)c2)C3=O)cc1 (racemic) [Compound 41] > 100 µM

// next record CCOc1ccc(N2C(=O)[C@]3(NC2=S)[C@@H](c2ccc(F)cc2)CN(C)[C@@]32C(=O)Nc3ccc(Br)cc32)cc1 (racemic) [Compound 31] > 100 µM

// next record CC(c1ccccc1)N1C(=O)C2(NC1=S)C(c1ccc(Cl)cc1)CN(C)C21C(=O)Nc2ccc(Br)cc21 (mixture of isomers) [Compound 65] > 100 µM

// next record CC(c1ccccc1)N1C(=O)C2(NC1=S)C(c1ccc(Cl)cc1)CN(C)C21C(=O)Nc2ccc(Cl)cc21 (mixture of isomers) [Compound 66] > 100 µM

// next record CN1C[C@H](c2ccc(Cl)cc2)[C@]2(NC(=S)N(c3ccccc3)C2=O)[C@]12C(=O)Nc1ccc(Br)cc12 (racemic) [Compound 13] 11.3 µM

// next record COc1ccc([C@H]2CN(C)[C@@]3(C(=O)Nc4ccc(Cl)cc43)[C@@]23NC(=S)N(c2ccc(O)cc2)C3=O)cc1OC (racemic) [Compound 57] 20 µM

// next record CN1C[C@H](c2ccccn2)[C@]2(NC(=S)N(c3ccccc3)C2=O)[C@]12C(=O)Nc1ccc(Cl)cc12 (racemic) [Compound 18] 8.2 µM

// next record CN1C[C@H](C2CCCCC2)[C@]2(NC(=S)N(c3ccccc3)C2=O)[C@]12C(=O)Nc1ccc(Br)cc12 (racemic) [Compound 26] > 100 µM

// next record CN1CC(c2ccccc2Cl)C2(NC(=S)N(c3ccc(O)cc3)C2=O)C12C(=O)Nc1ccc(Br)cc12 (stereo not drawn) [Compound 54] 20 µM

// next record CCOc1ccc([C@H]2CN(C)[C@@]3(C(=O)Nc4ccc(Br)cc43)[C@@]23NC(=S)N(c2ccc(F)cc2)C3=O)cc1 (racemic) [Compound 61] > 100 µM

// next record CC(c1ccccc1)N1C(=O)C2(NC1=S)C(c1ccccc1Cl)CN(C)C21C(=O)Nc2ccc(Cl)cc21 (mixture of isomers) [Compound 64] > 100 µM

// next record CN1C[C@H](c2ccc(Cl)c(Cl)c2)[C@]2(NC(=S)N(c3ccccc3)C2=O)[C@]12C(=O)Nc1ccc(Br)cc12 (racemic) [Compound 16] > 100 µM

----------
# System: HCT^wt cells
# ASSAY_SUMMARY: MTT cytotoxicity assay, HCT^wt (p53 pos)
# Type: cell-based
# TEST_CONTEXT: 48 h
# Procedure: The synthesized compounds were tested for their ability to block the proliferation of the selected model cell lines: LNCaP (p53+), PC3 (p53-), HCT^wt (p53+), and HCT^−/− (p53-) cells. […] First, 4000 cells per well were plated out in 140 µL of DMEM (with 10% FBS) in 96-well plates and incubated in 5% CO2 for 24 h at 37 °C without treatment. […] Cell survival rates were determined by the comparison of optical density with the corresponding untreated control cell culture. […]
pIC50: −log10 of the molar value.
QUANTITY_NAME: pIC50

Field: example entries. Status: answers known.
CC(c1ccccc1)N1C(=O)C2(NC1=S)C(c1ccc(Cl)cc1)CN(C)C21C(=O)Nc2ccc(Cl)cc21 (mixture of isomers) ... < 4.00
CC(c1ccccc1)N1C(=O)C2(NC1=S)C(c1ccc(Cl)cc1)CN(C)C21C(=O)Nc2ccc(Br)cc21 (mixture of isomers) ... < 4.00
CC(c1ccccc1)N1C(=O)C2(NC1=S)C(c1ccccc1Cl)CN(C)C21C(=O)Nc2ccc(Cl)cc21 (mixture of isomers) ... 4.62
CCOc1ccc(N2C(=O)[C@]3(NC2=S)[C@@H](c2ccc(Cl)c(Cl)c2)CN(C)[C@@]32C(=O)Nc3ccccc32)cc1 (racemic) ... < 4.00
CN1C[C@H](c2ccccc2Cl)[C@]2(NC(=S)N(c3ccc(O)cc3)C2=O)[C@]12C(=O)Nc1ccccc12 (racemic) ... < 4.00

Kindly consider the entry below.
What measured pIC50 goes with CCOc1ccc(N2C(=O)C3(NC2=S)C(c2ccc(Cl)cc2)CN(C)C32C(=O)Nc3ccc(Br)cc32)cc1 (stereo not drawn) ? 4.85

----------
pIC50 values, listed per item
# Test system: LNCaP cells
# ASSAY_SUMMARY: MTT cytotoxicity assay, LNCaP (p53 pos)
# Type: cell-based
# TEST_CONTEXT: 48 h
pIC50: −log10 of the molar value.

Field: example entries. Status: answers known.
CN1C[C@H](c2ccc(Cl)cc2)[C@]2(NC(=S)N(c3ccc(F)cc3)C2=O)[C@]12C(=O)Nc1ccc(Br)cc12 (racemic) [Compound 40] ... < 4.00
CN1CC(c2ccc(Cl)cc2)C2(NC(=S)N(c3ccc(O)cc3)C2=O)C12C(=O)Nc1ccccc12 (stereo not shown) [Compound 50] ... 4.74

Kindly consider the entry below.
What measured pIC50 goes with CCc1ccc([C@H]2CN(C)[C@@]3(C(=O)Nc4ccccc43)[C@@]23NC(=S)N(c2ccc(F)c(Cl)c2)C3=O)cc1 (racemic) [Compound 46] ? < 4.00

----------
pIC50 values, listed per item
# Tested on: HCT^−/− cells
# ASSAY_SUMMARY: MTT cytotoxicity assay, HCT^−/− (p53 neg)
# Format: cell-based
# TEST_CONTEXT: 48 h
pIC50: −log10 of the molar value.

CN1C[C@H](c2ccc(F)cc2)[C@]2(NC(=S)N(c3ccc(Cl)cc3)C2=O)[C@]12C(=O)Nc1ccccc12 (racemic) [Compound 38] ... < 4.00
CN1CC(c2ccccc2Cl)C2(NC(=S)N(c3ccc(O)cc3)C2=O)C12C(=O)Nc1ccc(Br)cc12 (stereo not drawn) [Compound 54] ... < 4.00
CN1C[C@H](c2ccccc2Cl)[C@]2(NC(=S)N(c3ccccc3)C2=O)[C@]12C(=O)Nc1ccc(Cl)cc12 (racemic) [Compound 11] ... < 4.00
CN1C[C@H](c2ccc(Cl)cc2)[C@]2(NC(=S)N(c3ccc(Cl)cc3)C2=O)[C@]12C(=O)Nc1ccc(Cl)cc12 (racemic) [Compound 37] ... < 4.00
CN1C[C@H](c2cccc(Cl)c2)[C@]2(NC(=S)N(c3ccc(F)c(Cl)c3)C2=O)[C@]12C(=O)Nc1ccc(Cl)cc12 (racemic) [Compound 43] ... 5.02

Kindly consider the entry below.
Form field - read-out: pIC50; system: HCT^−/− cells; submitted item: CN1C[C@H](c2cccc(Cl)c2)[C@]2(NC(=S)N(c3ccccc3)C2=O)[C@]12C(=O)Nc1ccc(Br)cc12 (racemic) [Compound 15] < 4.00
